Kd: recorded values
Target: T1, human PD-L1 (Cat. #10084-H08H, Sino Biological) (human, UniProt Q9NZQ7 19-239)
T1 construct: Bought recombinant protein used in the Biacore test; also called hPDL1; hPD-L1
T1 sequence (Q9NZQ7 19-239 limits assumed): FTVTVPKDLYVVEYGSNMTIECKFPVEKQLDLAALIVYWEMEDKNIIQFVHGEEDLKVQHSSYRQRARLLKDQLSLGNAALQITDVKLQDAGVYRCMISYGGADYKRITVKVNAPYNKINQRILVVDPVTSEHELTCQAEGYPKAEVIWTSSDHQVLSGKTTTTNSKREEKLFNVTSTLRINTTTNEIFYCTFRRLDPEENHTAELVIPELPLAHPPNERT
Test: SPR, Biacore X100, 1:1 Langmuir
Could you give me the number in nM? Just the number is fine.

# binder, Kd / nM
data = [
    ("H12L61 (antibody, human IgG1, kappa, V domains shown, also called 24D5 H12 and 24D5 L61) VH: QVQLVQSGAEVKKPGASVKVSCKASGYTFTSYWMHWVRQAPGQGLEWMGRITPSSGFAMYNEKFKNRVTMTRDTSTSTVYMELSSLRSEDTAVYYCARGGSSYDYFDYWGQGTTVTVSS VL: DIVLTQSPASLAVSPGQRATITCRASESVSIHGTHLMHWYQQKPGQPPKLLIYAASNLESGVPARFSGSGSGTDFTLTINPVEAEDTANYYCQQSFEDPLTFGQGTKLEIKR", 0.0326),
    ("H5L11 (antibody, human IgG1, kappa, V domains shown, from the HRP00049 mutant library; also called 9-2 H5 and 9-2 L11) VH: QVQLQESGPGLVKPSQTLSLTCTVSGGSISDGSAYWSWIRQHPGKGLEYIGFISRAGSTYNTPSLKGRVTISRDTSKNQFSLKLSSVTAADTAVYYCARSGGWLAPFDYWGRGTLVTVSS VL: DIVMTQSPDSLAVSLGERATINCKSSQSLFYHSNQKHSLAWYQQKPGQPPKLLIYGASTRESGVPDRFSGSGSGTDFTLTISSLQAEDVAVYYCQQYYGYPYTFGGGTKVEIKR", 0.203),
    ("H15L61 (antibody, human IgG1, kappa, V domains shown, also called 24D5 H15 and 24D5 L61) VH: QVQLVQSGAEVKKPGASVKVSCKANGYTFTDKWMMWVRQAPGQGLEWMGRITPSSGFAMYNEKFKNRVTMTRDTSTSTVYMELSSLRSEDTAVYYCARGGSSYDYFDYWGQGTTVTVSS VL: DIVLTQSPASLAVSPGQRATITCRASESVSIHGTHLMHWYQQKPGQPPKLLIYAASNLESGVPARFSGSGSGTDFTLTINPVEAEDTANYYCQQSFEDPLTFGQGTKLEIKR", 0.0325),
    ("H17L61 (antibody, human IgG1, kappa, V domains shown, also called 24D5 H17 and 24D5 L61) VH: QVQLVQSGAEVKKPGASVKVSCKASGYTFTSYWMHWVRQAPGQGLEWMGRIGPNLGWAMYNEKYKNRVTMTRDTSTSTVYMELSSLGSEDTAVYYCARGGSSYDYFDYWGQGTTVTVSS VL: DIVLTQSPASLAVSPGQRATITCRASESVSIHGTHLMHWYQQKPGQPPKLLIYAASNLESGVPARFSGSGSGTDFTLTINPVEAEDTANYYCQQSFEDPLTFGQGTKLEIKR", 0.0393),
]

Lookup: Fill in the blank: the reported Kd of H19L61 (antibody, human IgG1, kappa, V domains shown, also called 24D5 H19 and 24D5 L61) VH: QVQLVQSGAEVKKPGASVKVSCKASGYTFTSYWMHWVRQAPGQGLEWMGRISPGGGFTLYNEKFKNRVTMTRDTSTSTVYMELSSLRSEDTAVYYCARGGSSYDYFDYWGQGTTVTVSS VL: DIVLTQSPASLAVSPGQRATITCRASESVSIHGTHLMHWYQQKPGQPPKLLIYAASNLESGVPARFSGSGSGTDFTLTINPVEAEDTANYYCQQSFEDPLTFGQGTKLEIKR is ____.
Found: 0.0327
